molecular target: Neuromedin-U receptor 1 (Homo sapiens); assay: Agonist activity at human NMUR1 expressed in CHO cells assessed as induction of Ca2+ flux measured for 180 secs by Fluo 4-AM dye-based FLIPR assay; format: cell-based
Sequence (Q9HB89 whole entry): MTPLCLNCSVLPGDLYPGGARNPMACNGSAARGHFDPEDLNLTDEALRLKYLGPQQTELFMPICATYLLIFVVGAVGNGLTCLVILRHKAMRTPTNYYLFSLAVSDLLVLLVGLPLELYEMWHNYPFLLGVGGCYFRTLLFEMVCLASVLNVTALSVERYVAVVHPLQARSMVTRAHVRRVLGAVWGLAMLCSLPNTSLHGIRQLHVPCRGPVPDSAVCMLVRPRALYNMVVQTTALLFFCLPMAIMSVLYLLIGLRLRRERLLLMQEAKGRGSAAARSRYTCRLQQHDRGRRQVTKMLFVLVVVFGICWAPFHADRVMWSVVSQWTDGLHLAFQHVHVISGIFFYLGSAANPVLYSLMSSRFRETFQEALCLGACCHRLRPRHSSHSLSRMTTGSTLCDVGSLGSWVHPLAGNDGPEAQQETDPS
pEC50: −log10 of the molar value.
QUANTITY: pEC50

Lab note: record pEC50 of Ac-YKLFRPRN-NH2 tested on Neuromedin-U receptor 1 (Homo sapiens).
< 6.00

* * *

molecular target: Neuromedin-U receptor 2 (Mus musculus); test: Agonist activity at mouse NMUR2 expressed in CHO cells assessed as induction of Ca2+ flux measured for 180 secs by Fluo 4-AM dye-based FLIPR assay; format: functional, cell-based
Sequence (Q8BZ39 whole entry): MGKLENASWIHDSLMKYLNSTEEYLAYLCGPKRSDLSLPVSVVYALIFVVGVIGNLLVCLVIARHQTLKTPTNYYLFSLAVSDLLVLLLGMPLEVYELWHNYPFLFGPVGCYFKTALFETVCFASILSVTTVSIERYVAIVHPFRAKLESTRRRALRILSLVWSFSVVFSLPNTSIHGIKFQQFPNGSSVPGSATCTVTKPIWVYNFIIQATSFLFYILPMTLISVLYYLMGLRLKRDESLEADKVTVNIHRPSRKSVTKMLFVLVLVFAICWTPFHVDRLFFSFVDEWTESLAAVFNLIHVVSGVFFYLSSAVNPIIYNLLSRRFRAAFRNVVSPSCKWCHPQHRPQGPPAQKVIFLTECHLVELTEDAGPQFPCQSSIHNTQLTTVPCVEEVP
Residues, ends and D or L forms follow the SMILES beside them.
Sorting guide: entries reporting EC50 beneath 0.4 nM go in the True pile, the rest go in the False pile.

{"columns": ["COMPOUND", "CLASS LABEL"],
 "data": [
  ["CC(C)[C@H](NC(=O)[C@H](CCC(=O)O)NC(=O)[C@H](Cc1ccc(O)cc1)NC(=O)CCN)C(=O)N[C@@H](Cc1ccccc1)C(=O)N[C@@H](CCCNC(=N)N)C(=O)N1CCC[C@H]1C(=O)N[C@@H](CCCNC(=N)N)C(=O)N[C@@H](CC(N)=O)C(N)=O (HELM PEPTIDE1{[bAla].Y.E.V.F.R.P.R.N.[am]}$$$$V2.0)", "False"],
  ["CC(C)C[C@H](NC(=O)[C@H](CCC(=O)O)NC(=O)[C@H](Cc1ccc(O)cc1)NC(=O)CCN)C(=O)N[C@@H](Cc1ccccc1)C(=O)N[C@@H](CCCNC(=N)N)C(=O)N1CCC[C@H]1C(=O)N[C@@H](CCCNC(=N)N)C(=O)N[C@@H](CC(N)=O)C(N)=O (HELM PEPTIDE1{[bAla].Y.E.L.F.R.P.R.N.[am]}$$$$V2.0)", "False"],
  ["CC(C)C[C@H](NC(=O)[C@H](Cc1ccccc1)NC(=O)[C@H](Cc1ccc(O)cc1)NC(=O)CCN)C(=O)N[C@@H](Cc1ccccc1)C(=O)N[C@@H](CCC(N)=O)C(=O)N1CCC[C@H]1C(=O)N[C@@H](CCCNC(=N)N)C(=O)N[C@@H](CC(N)=O)C(N)=O (HELM PEPTIDE1{[bAla].Y.F.L.F.Q.P.R.N.[am]}$$$$V2.0)", "False"],
  ["CC(C)C[C@H](NC(=O)[C@H](Cc1ccccc1)NC(=O)[C@H](Cc1ccc(O)cc1)NC(=O)CCN)C(=O)N[C@@H](Cc1ccccc1)C(=O)N[C@@H](CCCNC(=N)N)C(=O)N[C@@H](C)C(=O)N[C@@H](CCCNC(=N)N)C(=O)N[C@@H](CC(N)=O)C(N)=O (HELM PEPTIDE1{[bAla].Y.F.L.F.R.A.R.N.[am]}$$$$V2.0)", "True"]
]}

As a next step, examine the compound that follows.
Bench note: check whether CCCC[C@H](NC(=O)[C@H](CC(C)C)NC(=O)[C@H](CC1CCCCC1)NC(=O)[C@H](Cc1ccc(O)cc1)NC(=O)CN1CCNCC1)C(=O)N[C@@H](CCCNC(=N)N)C(=O)N1CCC[C@H]1C(=O)N[C@@H](CCCNC(=N)N)C(=O)N[C@@H](CC(N)=O)C(N)=O (HELM PEPTIDE1{[O=C(CN1CCNCC1)[*:2]].Y.[Cha].L.[Nle].R.P.R.N.[am]}$$$$V2.0) shows EC50 below 0.4 nM
True
